Tested on: UACC-257 melanoma
Assay: NCI tumour cell line growth inhibition, 48 h; in the data active = GI50 below about 0.43 µM; inactive = the rest
Please reply with one of these outcomes: Yes = active, No = inactive

Example entries and their recorded answers appear below.
cpd_smiles | class
CCn1cc(C(=O)O)c(=O)c2cc(F)c(N3CCN(S(=O)(=O)c4ccc(Cl)cc4Cl)CC3)cc21 | No
[Br][Pb]([c]1ccccc1)([c]1ccccc1)[c]1ccccc1 | Yes

Hi, do you know how O=C(Nc1cccc(-n2ccc3c(NC(=O)c4ccccc4)ncnc32)c1)Nc1ccc(Cl)c(C(F)(F)F)c1 came out in this test? No

Per the records of this test, what outcome belongs to Cc1cc(N2CCC(N3CCCC3)CC2)nc(/N=C(\N)Nc2ccc(Cl)c(Cl)c2)n1 ? No

Answer briefly: the call reported for COC(=O)c1c(C)nc(C)c2c1C(=O)C(Br)=C(NCc1ccccc1)C2=O in this assay. No

Record lookup: outcome of this test for CCn1c(-c2nonc2N)nc2ccccc21 ? No
